The reported numbers originate from ChEMBL document CHEMBL1133327.

# subject-of-test: UniProtKB P08373
# Sequence (P08373 whole entry): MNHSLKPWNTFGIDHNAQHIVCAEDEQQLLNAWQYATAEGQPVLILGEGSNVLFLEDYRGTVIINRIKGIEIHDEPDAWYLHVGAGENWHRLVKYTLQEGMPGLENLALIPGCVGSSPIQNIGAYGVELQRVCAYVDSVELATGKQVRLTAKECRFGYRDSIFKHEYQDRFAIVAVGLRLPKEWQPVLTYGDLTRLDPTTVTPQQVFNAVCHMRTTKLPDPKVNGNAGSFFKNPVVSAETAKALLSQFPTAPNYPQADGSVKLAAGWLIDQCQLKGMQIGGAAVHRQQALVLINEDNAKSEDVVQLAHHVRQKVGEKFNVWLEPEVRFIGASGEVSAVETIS
# assay: Inhibition of bacterial enzyme UDP-N-acetylmuramate dehydrogenase
quantity-name: IC50

For orientation, consider the following solved cases.
CC(C)(C)c1ccc(Oc2cccc(C3SC(CC(=O)NNc4ccccc4)C(=O)N3[C@@H](CO)C(=O)O)c2)cc1 (some centres not stated)    Not Active
CC1SC(c2cccc(Oc3ccc(C(C)(C)C)cc3)c2)N([C@@H](CCCN)C(=O)O)C1=O (some centres not stated)    Not Active
CC(C)(C)c1ccc(Oc2cccc(C3SC(CC(=O)NNc4ccccc4)C(=O)N3CC(=O)O)c2)cc1 (configuration not stated)    Not Active
CC(C)(C)c1ccc(Oc2cccc(C3SCC(=O)N3[C@@H](CC(=O)O)C(=O)O)c2)cc1 (some centres not stated)    Not Active

So, CC1SC(c2cccc(Oc3ccc(C(C)(C)C)cc3)c2)N([C@@H](CC(=O)O)C(=O)O)C1=O (some centres not stated) ? Its IC50 was Not Active

So, CC(C)(C)c1ccc(Oc2cccc(C3SCC(=O)N3[C@@H](Cc3ccccc3)C(=O)O)c2)cc1 (some centres not stated) ? Its IC50 was Not Active

So, CC(C)(C)c1ccc(Oc2cccc(C3SCC(=O)N3CC(=O)O)c2)cc1 (configuration not stated) ? Its IC50 was Not Active
